Target: Abl(T315I)(h) (Homo sapiens, UniProt P00519, T315I)
Construct: purchased Caliper Life Sciences
Assay: Other kinases, single-concentration inhibition (Table 3)
Assay type: biochemical
Settings: 1 μM

{"Molecule": "CN1CCN(c2ccc3cc2OCCS[C@@H]2C[C@@H]4C[C@H]2[C@@H](Nc2nc(ncc2F)N3)[C@H]4C(N)=O)CC1 [Example 22]", "% inhibition Abl(T315I)(h) (%)": 13}
{"Molecule": "C=C[C@@H]1C[C@@H]2/C=C/COc3cccc(c3)Nc3ncc(F)c(n3)N[C@H]2[C@H]1C(N)=O (single isomer, unassigned) [Example 3]", "% inhibition Abl(T315I)(h) (%)": 92}
{"Molecule": "CN1CCN(c2ccc3cc2NC(=O)CS[C@@H]2C[C@@H]4C[C@H]2[C@@H](Nc2nc(ncc2F)N3)[C@H]4C(N)=O)CC1 [Example 24]", "% inhibition Abl(T315I)(h) (%)": 0}
{"Molecule": "NC(=O)[C@H]1[C@H]2C[C@H]3[C@H]1Nc1nc(ncc1F)Nc1cccc(c1)CSS[C@@H]3C2 [Example 10]", "% inhibition Abl(T315I)(h) (%)": 47}

Attribution: patent US8815872B2
